Just for reference, patent US20100075965A1 is where these values come from.

- System: A2780 cells
- Measurement description: Viability assay in A2780 (Cell Titer Glo)
- Format: cell-based, human
- Setup conditions: Homo sapiens; A2780 cells; read-out: A2780 Cell prolif. EC50
Measured attribute: EC50

>>> print(df.to_string())
                                    compound       system  reported
 0  CC(=O)Nc1cn2cc(-c3cnc(N)c(CN4CCCC4)c3)ccc2n1  A2780 cells   < 25 µM
 1  Nc1ncc(-c2ccc3nc(NC(=O)C(F)(F)F)cn3c2)cn1  A2780 cells   < 25 µM
 2  CCOCC(=O)Nc1cn2nc(-c3cnc(N)c(C(F)(F)F)c3)ccc2n1  A2780 cells   < 10 µM
 3  CC(=O)Nc1cn2cc(-c3cnc(N)c(Oc4ccccc4)n3)ccc2n1  A2780 cells    < 1 µM
 4  CC(=O)Nc1cn2cc(-c3cnc(N)c(/C=N/Nc4ccccc4)c3)ccc2n1  A2780 cells    < 1 µM
 5  CC(=O)Nc1cn2nc(-c3cnc(N)c(-c4ccccc4C(F)(F)F)c3)ccc2n1  A2780 cells    < 1 µM
 6  CC(C)(C)OC(=O)N1CC[C@@H](OCC(=O)Nc2cn3nc(-c4cnc(N)c(C(F)(F)F)c4)ccc3n2)C1  A2780 cells    < 1 µM
 7  Nc1ncc(-c2ccc3nc(NC(=O)c4cccnc4)cn3c2)cc1C(F)(F)F  A2780 cells   < 10 µM
 8  COC(=O)Nc1cn2cc(-c3cnc(N)c(C(F)(F)F)c3)ccc2n1  A2780 cells   < 10 µM
 9  Nc1ncc(-c2ccc3nc(NC(=O)Cc4ccccn4)cn3c2)cc1C(F)(F)F  A2780 cells   < 10 µM
10  Nc1ncc(-c2ccc3nc(NC(=O)c4cccc(F)c4)cn3c2)cc1C(F)(F)F  A2780 cells   < 10 µM
11  CC(=O)Nc1cn2cc(-c3cnc(N)c(N4CCOCC4)n3)ccc2n1  A2780 cells   < 10 µM
12  CC(=O)Nc1cn2nc(-c3cnc(N)c(CN4CCCC4)c3)ccc2n1  A2780 cells   < 10 µM
13  COc1ccccc1-c1cc(-c2ccc3nc(NC(C)=O)cn3n2)cnc1N  A2780 cells   < 10 µM
14        CC(=O)Nc1cn2cc(-c3cnc(N)cn3)ccc2n1  A2780 cells   < 25 µM
15  CC(=O)Nc1cn2cc(-c3cnc(N)c(OC4CN(C(=O)c5ccccc5)C4)n3)ccc2n1  A2780 cells   < 10 µM
16  CC(C)(C(=O)Nc1cn2cc(-c3cnc(N)c(C(F)(F)F)c3)ccc2n1)c1ccccc1  A2780 cells   < 25 µM
17  Nc1ncc(-c2ccc3nc(NC(=O)C4CCN4)cn3c2)nc1OCC(F)(F)F (stereo not drawn)  A2780 cells   < 10 µM

====

- System: PI3 K Alpha (Homo sapiens, UniProt P42336)
- Sequence (P42336 whole entry): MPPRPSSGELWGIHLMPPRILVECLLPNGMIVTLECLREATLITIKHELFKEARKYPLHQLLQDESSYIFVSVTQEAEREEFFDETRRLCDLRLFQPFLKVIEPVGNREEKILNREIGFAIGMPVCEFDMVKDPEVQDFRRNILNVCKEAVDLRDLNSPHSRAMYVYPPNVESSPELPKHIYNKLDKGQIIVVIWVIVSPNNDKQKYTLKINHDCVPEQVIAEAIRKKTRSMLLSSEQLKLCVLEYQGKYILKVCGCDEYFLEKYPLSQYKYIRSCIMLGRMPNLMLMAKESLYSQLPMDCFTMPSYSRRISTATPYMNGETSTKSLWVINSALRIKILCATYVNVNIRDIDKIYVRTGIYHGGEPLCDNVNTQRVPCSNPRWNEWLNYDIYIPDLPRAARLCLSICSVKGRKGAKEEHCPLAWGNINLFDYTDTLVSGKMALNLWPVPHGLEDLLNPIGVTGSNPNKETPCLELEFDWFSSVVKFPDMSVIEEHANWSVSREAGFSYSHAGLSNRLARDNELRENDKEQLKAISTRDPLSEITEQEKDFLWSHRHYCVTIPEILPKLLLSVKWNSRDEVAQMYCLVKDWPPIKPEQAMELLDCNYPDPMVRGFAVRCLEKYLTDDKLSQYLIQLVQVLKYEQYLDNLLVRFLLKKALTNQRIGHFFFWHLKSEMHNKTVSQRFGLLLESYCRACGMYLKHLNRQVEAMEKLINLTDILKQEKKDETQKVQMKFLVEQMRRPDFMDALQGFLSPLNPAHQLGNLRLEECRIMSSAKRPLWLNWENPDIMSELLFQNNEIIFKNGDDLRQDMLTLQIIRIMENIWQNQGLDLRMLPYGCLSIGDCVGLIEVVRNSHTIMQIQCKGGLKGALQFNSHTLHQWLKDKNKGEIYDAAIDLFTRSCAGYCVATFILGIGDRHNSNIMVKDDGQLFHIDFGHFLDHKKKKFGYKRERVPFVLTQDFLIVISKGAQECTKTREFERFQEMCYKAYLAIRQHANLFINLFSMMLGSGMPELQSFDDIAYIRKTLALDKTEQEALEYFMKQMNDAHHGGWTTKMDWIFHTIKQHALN
- Sequence (P27986 whole entry partner): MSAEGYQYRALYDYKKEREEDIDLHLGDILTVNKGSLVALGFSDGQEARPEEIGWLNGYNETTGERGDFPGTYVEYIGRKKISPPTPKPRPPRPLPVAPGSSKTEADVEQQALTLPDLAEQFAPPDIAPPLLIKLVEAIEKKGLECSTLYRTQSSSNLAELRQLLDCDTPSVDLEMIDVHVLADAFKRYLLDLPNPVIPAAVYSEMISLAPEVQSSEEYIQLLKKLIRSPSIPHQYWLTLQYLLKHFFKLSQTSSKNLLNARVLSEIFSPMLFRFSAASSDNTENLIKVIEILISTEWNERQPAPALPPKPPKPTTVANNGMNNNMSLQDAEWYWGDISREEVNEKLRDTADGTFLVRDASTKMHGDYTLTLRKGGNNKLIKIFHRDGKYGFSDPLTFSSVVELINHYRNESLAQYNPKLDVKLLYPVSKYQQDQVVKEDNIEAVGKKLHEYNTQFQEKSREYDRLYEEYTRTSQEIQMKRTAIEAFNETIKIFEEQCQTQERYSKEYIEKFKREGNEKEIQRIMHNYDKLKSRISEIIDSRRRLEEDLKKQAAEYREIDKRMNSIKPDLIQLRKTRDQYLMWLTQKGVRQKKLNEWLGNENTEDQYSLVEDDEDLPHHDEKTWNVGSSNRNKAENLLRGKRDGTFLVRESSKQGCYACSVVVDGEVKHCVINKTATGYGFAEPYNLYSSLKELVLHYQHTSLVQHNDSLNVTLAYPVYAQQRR
- Measurement description: PI3 kinase phosphorylation assays (homogenous solution phase, one step solid phase, ATP depletion/KinaseGlo)
- Type: biochemical
- Setup conditions: read-out: PI3K Alpha IC50
- Method: Compounds to be tested are dissolved in DMSO and directly distributed into 384-well flashplates at 1.25 μL per well. […] The liquid in the wells is then washed away, and the labeled substrate is detected with scintillation counting. […] Compounds to be tested are dissolved in DMSO and directly distributed into a black 384-well plate at 1.25 μL per well. […] The stopped reaction is incubated for 5 minutes and the remaining ATP is then detected via luminescence.
Measured attribute: IC50

                                   compound  measured_attribute    reported
0  CCN(CC)CCCc1c(NC(C)=O)nc2ccc(-c3cnc(N)c(C(F)(F)F)c3)cn12 [Example 17]                IC50  < 10000 nM
1  CC(=O)Nc1cn2cc(-c3cnc(N)c(N4CCOCC4)n3)ccc2n1 [Example 201]                IC50   < 1000 nM
2  COc1c(-c2cnc(N)c(C(F)(F)F)c2)ccc2nc(NC(=O)C(F)(F)F)cn12 [Example 37]                IC50  < 25000 nM
3  CNC(=O)[C@@H]1CCN1C(=O)Nc1cn2cc(-c3cnc(N)c(C(F)(F)F)c3)ccc2n1 [Example 36]                IC50  < 25000 nM
4  Nc1ncc(-c2ccc3nc(NC(=O)c4ccccn4)cn3c2)cc1C(F)(F)F [Example 177]                IC50   < 1000 nM
5  CC(=O)Nc1cn2cc(-c3cnc(N)c(C=O)c3)ccc2n1 [Example 195]                IC50   < 1000 nM
6  CCN(CC)C(=O)c1cc(-c2ccc3nc(NC(C)=O)cn3c2)cnc1N [Example 218]                IC50   < 1000 nM
7  COc1ccc(C2CCCN2C(=O)Nc2cn3cc(-c4cnc(N)c(C(F)(F)F)c4)ccc3n2)cc1OC (centres unmarked) [Example 276]                IC50   < 1000 nM
